Remaining activity [%]: recorded values
# STUDY SYSTEM: VLP2 (virus-like particles, capsid protein particles of AAV serotype 2) (AAV serotype 2 (AAV2)) (UniProt P03135)
# Sequence (P03135 whole entry): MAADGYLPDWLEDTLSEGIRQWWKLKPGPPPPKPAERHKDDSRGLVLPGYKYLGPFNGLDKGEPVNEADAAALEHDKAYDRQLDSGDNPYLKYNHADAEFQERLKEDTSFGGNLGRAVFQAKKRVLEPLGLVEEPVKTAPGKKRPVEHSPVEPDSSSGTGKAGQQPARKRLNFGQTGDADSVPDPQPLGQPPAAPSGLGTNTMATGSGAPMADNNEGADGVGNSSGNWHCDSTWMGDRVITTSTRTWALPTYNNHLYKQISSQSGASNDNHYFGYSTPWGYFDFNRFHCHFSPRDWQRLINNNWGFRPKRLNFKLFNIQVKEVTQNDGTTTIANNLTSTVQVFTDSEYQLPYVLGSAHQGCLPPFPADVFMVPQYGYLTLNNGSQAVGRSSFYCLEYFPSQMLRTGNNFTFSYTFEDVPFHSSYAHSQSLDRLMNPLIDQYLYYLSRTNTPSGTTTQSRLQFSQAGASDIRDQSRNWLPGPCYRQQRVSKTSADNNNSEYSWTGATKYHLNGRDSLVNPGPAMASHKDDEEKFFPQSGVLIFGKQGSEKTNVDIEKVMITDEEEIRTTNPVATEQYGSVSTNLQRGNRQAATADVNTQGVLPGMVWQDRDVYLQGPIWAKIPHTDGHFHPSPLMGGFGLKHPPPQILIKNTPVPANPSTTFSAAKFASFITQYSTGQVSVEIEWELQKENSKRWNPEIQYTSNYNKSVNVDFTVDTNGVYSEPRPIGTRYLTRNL
# PROCEDURE SUMMARY: ELISA on immobilised VLP2 (purified protein, 5 µg/mL); start of alkali treatment, the reference of the ratio
Quick reminder: number only, in %, skip the unit.

Illustrative cases are given below, each with its answer.
AVR29b (AVR25c with G314D, I366F, V394A, K455R) (receptor) MGSADESDQITLPKHEAQLKVYVLLVPPKGEASTYDWQLITHPRDYSGEMEGEHSQFLKLSNLTPGLYEYRAVVEGQNAHSEGYANVTVEPGPRKNRPPIAIVSPQFQEISLPTTSAVIDGSQSTDDDKIVQYHWEELKGPLREERISEDTPILKLSNLVPGNYTFRLTVVDTDGATDSTTADLTVNKAVDHHHHHH	100
AAV-binding protein AVR21 (receptor) MGSAGESDQITLPKHEAQLNVYVLLVPPKGEASTYDWQLITHPRDYSGEMEGEHSQILKLSNLTPGLYEYRAVVEGQNAHSEGYVNVTVEPEPRKNRPPIAIVSPQFQEISLPTTSTVIDGSQSTDDDKIVQYHWEELKGPLREEKISEDTAILKLSQLVPGNYTFRLTVVDTDGATDSTTADLTVNKAVDHHHHHH	100

Dear colleague, I am looking for the recorded Remaining activity [%] of the following binder: AVR31 (AVR25c with G314D, I366F, V394A, K455R, K497E, V499I) (receptor) MGSADESDQITLPKHEAQLKVYVLLVPPKGEASTYDWQLITHPRDYSGEMEGEHSQFLKLSNLTPGLYEYRAVVEGQNAHSEGYANVTVEPGPRKNRPPIAIVSPQFQEISLPTTSAVIDGSQSTDDDKIVQYHWEELKGPLREERISEDTPILKLSNLVPGNYTFRLTVVDTDGATDSTTADLTVNEAIDHHHHHH
100

These measurements were taken from patent EP4717706A1.
